organism: Rattus norvegicus; assay: Open TG-GATES - Regimen: Daily Repeat; type: toxicity, organism-based, Sprague-Dawley; parameters: regimen Daily Repeat, gender Male, age 6 weeks; details: in vivo, po, 300 mg/kg, […], tissue Blood, route gavage, dose level Middle, time 7 day
The following compounds are listed with their measured Mono values.
Report the figure in % without appending any unit label.

Past entries and their recorded results:
>  <Compound>
O=C(O)c1cccnc1 [NIACIN]

>  <Measurement Name>
Mono

>  <Result Value>
3.4

$$$$
>  <Compound>
CCN1CCCC1CNC(=O)c1cc(S(N)(=O)=O)ccc1OC (centres undefined) [SULPIRIDE]

>  <Measurement Name>
Mono

>  <Result Value>
2.2

$$$$
>  <Compound>
CC(C)(S)[C@@H](N)C(=O)O [PENICILLAMINE]

>  <Measurement Name>
Mono

>  <Result Value>
3.6

$$$$

I am curious: what Mono value has been reported for O=C(N[C@H](CO)[C@H](O)c1ccc([N+](=O)[O-])cc1)C(Cl)Cl [CHLORAMPHENICOL] ?
3.6

Entry source: ChEMBL document CHEMBL3885861
